- Test system: Bacillus thuringiensis
- Test Description: Antimicrobial activity against Bacillus thuringiensis var. kurstaki BGSC 4D1 by broth dilution technique
- Format: functional
- Condition Info: serovar kurstaki
Consider the cut-off 3 µg/mL. If the recorded MIC is strictly smaller, the label is Y; if not, the label is N.

In [3]: df
Out[3]:
                                    molecule  class
 0  O=C1N/C(=N\c2nc3ccccc3s2)S/C1=C\c1cccc([N+](=O)[O-])c1      N
 1  COc1cc(/C=C2\S/C(=N/c3nc4ccccc4s3)NC2=O)ccc1O      N
 2  O=C1N/C(=N\c2nc3ccccc3s2)S/C1=C\c1ccc(Cl)cc1      N
 3  O=C1N/C(=N\c2nccs2)S/C1=C\c1ccc([N+](=O)[O-])cc1      Y
 4  O=C1N/C(=N/c2nsc3ccccc23)S/C1=C\c1ccc(Cl)cc1      N
 5  O=C1N/C(=N\c2nc3ccccc3s2)S/C1=C\c1cccc(Cl)c1      N
 6  O=C1N/C(=N\c2nccs2)S/C1=C\c1ccccc1[N+](=O)[O-]      N
 7              O=C1CS/C(=N/c2nc3ccccc3s2)N1      N
 8    O=C1N/C(=N\c2nccs2)S/C1=C\c1cccc(Cl)c1      Y
 9  O=C1N/C(=N\c2nc3ccccc3s2)S/C1=C\c1ccccc1Cl      N
10  CC1(C)S[C@@H]2[C@H](NC(=O)[C@H](N)c3ccccc3)C(=O)N2[C@H]1C(=O)O [AMPICILLIN]      N
11              O=C1CS/C(=N\c2nsc3ccccc23)N1      N
12  O=C1N/C(=N/c2nsc3ccccc23)S/C1=C\c1cccc([N+](=O)[O-])c1      Y
